Source listed as the nanobody polyreactivity screen of Harvey et al. (2022).

# Test details: yeast display, Sf9 membrane polyspecificity reagent, FACS + sequencing; frameworks hold sequencing errors

{"Seq text": "QVQLVESGGGLVQAGGSLRLSCAASGFIFSGNAMGWYRQAPGKERELVARIRSGDRTYYADSVKGRFTISRDNAKNTVYLQMNSLKPEDTAVYYCAAYAWYDWRSYFPILGYEYCGQGTQVTVSS", "polyreactivity (PSR sort gate)": "low polyreactivity"}
{"Seq text": "QVQLVESGGGLVQAGGSLRLSCAASGIISGDYAMGWYRQAPGKERELVARITSGDSTNYADSVKGRFTISRDNAKNTVYLQMNSLKPEDTAVYYCAADRVWAYWTYGYWGQGTQVTVSS", "polyreactivity (PSR sort gate)": "low polyreactivity"}
{"Seq text": "QVQLVESGGGLVQAGGSHRLSCAASGRTFYAYAMGWYRQAPGKERELVAANRYSGGRTYYADSVKGRFTISRDNAKNTVYLQMNSLKPEDTGVYYCAREWSRGSYVDYDYWGQGTQVTVSS", "polyreactivity (PSR sort gate)": "high polyreactivity"}
{"Seq text": "QVQLVESGGGLVQAGGSLRLSCASSGIIFLTYAMGWYRQAPGKERELVAAINSTGSTNYADSVKGRFTISRDNAKYSVYLQMNSLKPDDTAVYYCAAEGLPYVRVFDFVSRYDYWGQGTQVTVSS", "polyreactivity (PSR sort gate)": "low polyreactivity"}
{"Seq text": "QVQLVESGGGLVQAGGSLRLSCAASGSTFTRYAMGWYRQAPGKEREFVAAINWSGTSTYYADSVKGRFTISRDTAKNTVYLQMNSLKPEDTAVYYCNAYTVRSYRFDYWGQGTQVTVSS", "polyreactivity (PSR sort gate)": "high polyreactivity"}
{"Seq text": "QVQLVESGGGLVQAGGSLRLSCAASGSTFDTNAMGWYRQAPGKERELVAAITSGGNTYADSVKGRFTISRDNAKNTVYLQMNSLKPEDTAVYYCAAEDVYTGWYDYWGQGTQVTVSS", "polyreactivity (PSR sort gate)": "low polyreactivity"}
{"Seq text": "QVQLVESGGGLVQAGGSLRLSCAASGSTFYAYAMGWYRQAPGKERELVAAINSVGSTYYADSVKGRFTISRDNAKNTVYLQMNSLKPEDTAVYYCARGVDYPTSQPPYFRHDYWGQGTQVTVSS", "polyreactivity (PSR sort gate)": "low polyreactivity"}
{"Seq text": "QVQLVESGGGLVQAGGSLRLSCAASGFIFYDYDMGCYRQAPGKERELVAAITYSGGSTYYADSVKGRFTISRDNAKNTVYLQMNSLKPEDTAVYYCAAVKSRYAEAVDYYYWGQGTQVTVSS", "polyreactivity (PSR sort gate)": "low polyreactivity"}
{"Seq text": "QVQLVESCGGLDQAGGSLRLTCAASGINFWYNTMGWYRQAPRKERELVAAITYGGGSTYYADSVKGRFTISRDNAKNSVYLQMYSMKPVDTAVYYCAVRNWHLIKYLHGYSRYGYWGQGTQVTVSS", "polyreactivity (PSR sort gate)": "low polyreactivity"}
{"Seq text": "QVQLVESGGGLVQAGGSLRLSCAASGRTFIPYAMGWYRQAPGKERELVAAISTTAGTTYYADSVKGRFTISRDNAKNTVYLQMNSLKPEDTAVYYCAARRRWYRRYGGDFWGQGTQVTVSS", "polyreactivity (PSR sort gate)": "high polyreactivity"}
{"Seq text": "QVQLVESGGGLVQAGGSLRLSCAASGSTFGSYAMGWYRQAPGKERELVAGISWSGGRTYYADSVKGRFTISRDNAKNTVYLQMNSLKPEDTAVYYCARDTGYYYARYNYWGQGTQVTVSS", "polyreactivity (PSR sort gate)": "low polyreactivity"}
